Each recorded value in this set is attributed to ChEMBL document CHEMBL1153114.

- test system: Integrin alpha-5/beta-1 (Homo sapiens, UniProt P05556+P08648)
- Sequence (P05556 21-798 limits assumed): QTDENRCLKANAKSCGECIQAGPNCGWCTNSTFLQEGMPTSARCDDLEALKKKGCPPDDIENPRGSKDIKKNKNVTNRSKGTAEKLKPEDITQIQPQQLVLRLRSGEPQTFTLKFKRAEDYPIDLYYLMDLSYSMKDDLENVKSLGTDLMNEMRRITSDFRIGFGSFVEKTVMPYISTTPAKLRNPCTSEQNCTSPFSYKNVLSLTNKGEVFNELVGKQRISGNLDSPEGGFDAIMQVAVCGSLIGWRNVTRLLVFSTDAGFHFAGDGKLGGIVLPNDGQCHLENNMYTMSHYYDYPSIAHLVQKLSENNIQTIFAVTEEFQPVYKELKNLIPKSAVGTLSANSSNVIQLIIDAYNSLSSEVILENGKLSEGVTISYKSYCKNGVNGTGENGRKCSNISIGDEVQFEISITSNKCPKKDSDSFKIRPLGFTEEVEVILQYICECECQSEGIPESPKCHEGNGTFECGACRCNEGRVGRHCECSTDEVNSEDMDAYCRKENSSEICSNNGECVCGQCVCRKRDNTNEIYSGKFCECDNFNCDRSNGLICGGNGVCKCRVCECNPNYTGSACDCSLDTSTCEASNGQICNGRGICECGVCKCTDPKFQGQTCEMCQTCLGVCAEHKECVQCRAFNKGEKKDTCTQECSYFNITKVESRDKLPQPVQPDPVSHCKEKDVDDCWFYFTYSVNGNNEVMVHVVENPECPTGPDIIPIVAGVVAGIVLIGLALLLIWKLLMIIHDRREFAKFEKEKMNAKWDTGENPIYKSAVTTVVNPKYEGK
- Sequence (P08648 42-894 limits assumed): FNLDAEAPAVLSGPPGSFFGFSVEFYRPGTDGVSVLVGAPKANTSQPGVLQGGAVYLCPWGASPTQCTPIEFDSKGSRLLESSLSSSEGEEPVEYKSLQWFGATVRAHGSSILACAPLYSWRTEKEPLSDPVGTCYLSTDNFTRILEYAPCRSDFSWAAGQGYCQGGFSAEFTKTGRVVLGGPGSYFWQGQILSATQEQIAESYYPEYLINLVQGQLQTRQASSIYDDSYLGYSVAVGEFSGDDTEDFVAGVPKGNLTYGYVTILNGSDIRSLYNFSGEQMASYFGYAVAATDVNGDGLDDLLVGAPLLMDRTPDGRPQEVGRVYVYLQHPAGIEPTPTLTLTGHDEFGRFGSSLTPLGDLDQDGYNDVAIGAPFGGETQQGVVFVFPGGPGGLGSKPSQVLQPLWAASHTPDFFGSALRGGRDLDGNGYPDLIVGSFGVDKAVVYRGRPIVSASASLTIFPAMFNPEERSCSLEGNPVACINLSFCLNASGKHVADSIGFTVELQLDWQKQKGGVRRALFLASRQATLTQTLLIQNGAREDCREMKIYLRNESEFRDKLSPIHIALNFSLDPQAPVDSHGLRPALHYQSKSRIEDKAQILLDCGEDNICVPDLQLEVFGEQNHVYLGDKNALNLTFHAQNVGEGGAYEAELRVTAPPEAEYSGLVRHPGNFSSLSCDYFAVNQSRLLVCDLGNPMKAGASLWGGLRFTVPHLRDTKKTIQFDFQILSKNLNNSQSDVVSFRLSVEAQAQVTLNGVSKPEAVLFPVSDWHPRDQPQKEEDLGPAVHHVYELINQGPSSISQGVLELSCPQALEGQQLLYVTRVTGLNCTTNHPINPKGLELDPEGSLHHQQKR
- Sequence (P08648 895-1049 limits assumed): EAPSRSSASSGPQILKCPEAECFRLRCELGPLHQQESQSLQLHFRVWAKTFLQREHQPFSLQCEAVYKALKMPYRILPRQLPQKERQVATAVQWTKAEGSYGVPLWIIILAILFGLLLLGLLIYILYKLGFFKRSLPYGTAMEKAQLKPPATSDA
- protocol description: Binding affinity to integrin alpha5beta1 receptor by ELISA
Threshold-based label: IC50 under 10 nM gives yes (1), IC50 not under 10 nM gives no (0).

Hi there! Is IC50 for Cc1ccnc(NCc2cnc(-c3ccc(C[C@H](NC(=O)c4c(C)cc(C)cc4C)C(=O)O)cc3)s2)c1 below 10 nM, do you know?
no (0)

# strict comparison: is reported IC50 < 10 nM? input = Cc1cc(C)c(C(=O)N[C@@H](CNC(=O)CO[C@H]2C[C@H](CNc3ccccn3)N(C(=O)CC(C)(C)C)C2)C(=O)O)c(C)c1
yes (1)

Would you kindly verify if IC50 of Cc1ccnc(NCc2cccc(-c3ccc(CC(NC(=O)c4c(C)cc(C)cc4C)C(=O)O)cc3)c2)c1 (racemic) is strictly less than 10 nM?
no (0)

Could you please tell me whether IC50 recorded for Cc1ccnc(NCc2cn(-c3ccc(C[C@H](NC(=O)c4c(C)cc(C)cc4C)C(=O)O)cc3)nn2)c1 is less than 10 nM?
yes (1)

Does this compound meet the criterion IC50 < 10 nM? Cc1ccnc(NCc2ccc(-c3ccc(CC(NC(=O)c4c(C)cc(C)cc4C)C(=O)O)cc3)cc2)c1 (racemic)
no (0)

Field: below-cutoff. Rule: recorded IC50 strictly less than 10 nM. Subject: Cc1ccnc(NCC2CC(=O)N(c3ccc(C[C@H](NC(=O)c4c(C)cc(C)cc4C)C(=O)O)cc3)C2)c1 (some centres not stated)
yes (1)

IC50 under 10 nM? Item: Cc1cc(C)c(C(=O)N[C@@H](Cc2ccc(OCCCNc3ccccn3)cc2)C(=O)O)c(C)c1
yes (1)
